These entries and their values trace back to the supplement of paper PMC5844555.

# System: RB1
# test: 3' UTR reporter interaction score (median-centred robust z-score of log2 firefly/Renilla activity); higher = less repression of the 3' UTR reporter
# condition.summary: HEK293T; 48 h
Each entry below carries its reported 3' UTR reporter interaction score.
Reply with the value as a number alone.

Example sequences with recorded 3' UTR reporter interaction score:
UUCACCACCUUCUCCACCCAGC | 0.874
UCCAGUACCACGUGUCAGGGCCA | 0.837

Query UACUGCAUCAGGAACUGAUUGGAU yields 3' UTR reporter interaction score of 1.24

---

# Test system: BRCA2
# test: 3' UTR reporter interaction score (median-centred robust z-score of log2 firefly/Renilla activity); higher = less repression of the 3' UTR reporter
# condition.summary: HEK293T; 48 h
Let's look at some sequences and their measured 3' UTR reporter interaction score.
No unit in the answer, only the number.

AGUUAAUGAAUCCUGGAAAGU | -0.407
ACUCCAUUUGUUUUGAUGAUGGA | -0.329
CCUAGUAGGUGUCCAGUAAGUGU | -0.873
UCACUCCUCUCCUCCCGUCUUCU | -0.727
UUAAGACUUGCAGUGAUGUUUAA | 0.155

Memo: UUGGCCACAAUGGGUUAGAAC , reported 3' UTR reporter interaction score: 0.035

Given item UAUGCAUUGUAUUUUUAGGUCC , the value recorded as its 3' UTR reporter interaction score is 0.674

3' UTR reporter interaction score reported for this sequence AACAUUCAACCUGUCGGUGAGU : -1.56

Query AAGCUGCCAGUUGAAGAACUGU yields 3' UTR reporter interaction score of -0.407

Measured 3' UTR reporter interaction score, UACAGUACUGUGAUAACUGAAG : 0.0293

Record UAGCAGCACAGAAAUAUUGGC , field 3' UTR reporter interaction score: -0.194

Entry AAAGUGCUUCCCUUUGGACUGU ; 3' UTR reporter interaction score = 0.671
